Reported apparent KD of K4 kissing-loop reporter by item:
Tested on: K4 kissing-loop RNA reporter;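 further: bound reporter read as fluorescence of individual clusters on recovered sequencing chips by microscopy, with normalized cluster intensities fitted with a binding model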
Assay: apparent KD of K4 kissing-loop reporter; higher = weaker reporter binding
Conditions: Eterna round: R107; input ligand: tryptophan 2.4 mM

{"columns": ["SEQ_STRING", "apparent KD of K4 kissing-loop reporter [µM]"],
 "data": [
  ["UGUCAUUGGUCGGCCGCCACUAGGACCGGGAGUAACCUAGUGAUGUUAGUGUGCUCGGCCGCCACUAGGACCGGGACCGAUGACU [KL-SSTryp-B22 #DoubleAptamer]", 0.103],
  ["GCCGUAGAUUGAAGGAGCGGGCCGUAGUGAUGUUACGCCAAAUUAUCCUUUCUUGAGGUGGUCCAGGUAGGUCGCAAUCUACGGC", 0.118],
  ["CGCAAGCAGCCAGUGAUGUUGGCCGCCUUGCGAGGACCGGUACGGCCGCCACUCGAAGGCGGCUACUGAUAAUCCGUCUAACGGA [KL-XTryp-A15]", 0.111],
  ["CUUAUGGAGUGUCGUACCGGACACUGGGAAGGAGCGCAAUUCUUUGCAGGUAGGUCGCCCAGUGAUGUUGGGUGGCGCUGUCGAA [Xebeor]", 0.169],
  ["GGUAGCAUGGCGGCCGCCACUCAUGUAGAUACCUACAUAGUAAGCAGUGAUGUUGCUUUGUGGUUGAGGACCGGGCCAUGCUACC", 0.255],
  ["UUCCGGGCCGAAGGAUAUUGGAGUGAUGUUUCAAGACGUUCGUCCCAGCCCAUAGUAACUAUCGCCCAAGAAGGUCGUAUUGAAU [theeternabot_exclusion_KL_FMN_B_13]", 0.157]
]}
